target: ABCG2 (Homo sapiens, UniProt Q9UNQ0)
Sequence (Q9UNQ0 whole entry): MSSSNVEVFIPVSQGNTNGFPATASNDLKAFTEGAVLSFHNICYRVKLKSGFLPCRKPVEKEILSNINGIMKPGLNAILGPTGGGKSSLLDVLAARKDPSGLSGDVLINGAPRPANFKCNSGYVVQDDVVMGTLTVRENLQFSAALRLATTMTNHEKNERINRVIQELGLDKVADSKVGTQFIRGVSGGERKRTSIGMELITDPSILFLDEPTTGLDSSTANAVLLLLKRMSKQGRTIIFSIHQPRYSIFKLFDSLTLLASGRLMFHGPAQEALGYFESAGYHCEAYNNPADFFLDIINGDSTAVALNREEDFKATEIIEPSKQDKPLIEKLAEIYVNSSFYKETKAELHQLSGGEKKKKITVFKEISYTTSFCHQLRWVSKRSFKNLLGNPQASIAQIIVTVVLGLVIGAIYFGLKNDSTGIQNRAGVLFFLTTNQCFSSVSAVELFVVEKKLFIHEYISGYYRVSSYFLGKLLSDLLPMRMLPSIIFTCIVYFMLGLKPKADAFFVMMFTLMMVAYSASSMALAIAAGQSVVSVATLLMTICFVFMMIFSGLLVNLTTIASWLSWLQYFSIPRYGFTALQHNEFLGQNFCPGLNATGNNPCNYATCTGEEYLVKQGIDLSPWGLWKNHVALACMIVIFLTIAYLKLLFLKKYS
experiment summary: JC-1 efflux inhibition dose-response, flow cytometry, Ig-MXP3 cells
Type: cell-based
conditions: quotient of average ABCB1 IC50 and average ABCG2 IC50, JC-1 efflux assay
Mark False for ∼Fold G2 Selective values under 2 fold, and True for everything at or above.

entry smiles | answer label
COc1ccc(-c2cc(N3CCN(C(=O)c4ccoc4)CC3)n3nc(-c4ccccc4)cc3n2)cc1 | False
O=C(c1ccoc1)N1CCN(c2cc(-c3ccc(F)cc3)nc3cc(-c4ccccc4)nn23)CC1 | False
Cc1nc2cc(-c3cccc(Cl)c3)nn2c(N2CCN(C(=O)c3ccco3)CC2)c1C | True
O=C(c1ccoc1)N1CCN(c2cc(-c3ccccc3F)nc3cc(-c4cccc(Cl)c4)nn23)CC1 | True
O=C(c1ccoc1)N1CCN(c2cc(-c3ccncc3)nc3cc(-c4cccc(Cl)c4)nn23)CC1 | True
O=C(c1ccoc1)N1CCN(c2cc(-c3ccccc3)nc3cc(-c4ccc(Br)cc4)nn23)CC1 | False
O=C(c1ccccc1)N1CCN(c2cc(-c3ccccc3)nc3cc(-c4cccc(F)c4)nn23)CC1 | False
O=C(c1ccoc1)N1CCN(c2cc(-c3cccc(F)c3)nc3cc(-c4ccccc4)nn23)CC1 | True

These entries and their values trace back to paper PMC3623016.
